target: c-Src SH2; assay: SH2 binding enrichment of the phosphorylated peptide, bacterial display (enrichment ratio); higher = better substrate or ligand; peptides without Tyr show the background;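 further: peptide library displayed on the E. coli surface as eCPX fusions, selected cells deep-sequenced, score is each peptide's frequency after selection divided by its frequency in the input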
Assay endpoint: SH2 binding enrichment
Number only, please.

The following sequences have reported results that may help.
Residue codes: FQVRRYDCDCD [CRYGS_Y21_G18V]
Numeric value: 0.891
--
Residue codes: FRIDHYLGKEM [G6PD_Y202_YF]
Numeric value: 0.625
--
Residue codes: TVSRPYSFIEF [SEC22B_Y110]
Numeric value: 19.8
--
Residue codes: GACGGYCSVLG [RAB18_Y202]
Numeric value: 8.18
--
Residue codes: GKSHIYFWTLD [EML2_Y230_E235D]
Numeric value: 0.387

[Q] Report SH2 binding enrichment on c-Src SH2 for this entry: SYDLDYDSVQP [MYC_Y16_N11S]
[A] 1.19

[Q] # lookup: c-Src SH2 SH2 binding enrichment, key = SNFRAYATEPH [TNNI3_Y29_YF]
[A] 0.497

###

biological target: Hck (UniProt P08631); assay: phosphorylation enrichment, bacterial display (enrichment ratio); higher = better substrate or ligand; peptides without Tyr show the background
Sequence (P08631 whole entry, looked up): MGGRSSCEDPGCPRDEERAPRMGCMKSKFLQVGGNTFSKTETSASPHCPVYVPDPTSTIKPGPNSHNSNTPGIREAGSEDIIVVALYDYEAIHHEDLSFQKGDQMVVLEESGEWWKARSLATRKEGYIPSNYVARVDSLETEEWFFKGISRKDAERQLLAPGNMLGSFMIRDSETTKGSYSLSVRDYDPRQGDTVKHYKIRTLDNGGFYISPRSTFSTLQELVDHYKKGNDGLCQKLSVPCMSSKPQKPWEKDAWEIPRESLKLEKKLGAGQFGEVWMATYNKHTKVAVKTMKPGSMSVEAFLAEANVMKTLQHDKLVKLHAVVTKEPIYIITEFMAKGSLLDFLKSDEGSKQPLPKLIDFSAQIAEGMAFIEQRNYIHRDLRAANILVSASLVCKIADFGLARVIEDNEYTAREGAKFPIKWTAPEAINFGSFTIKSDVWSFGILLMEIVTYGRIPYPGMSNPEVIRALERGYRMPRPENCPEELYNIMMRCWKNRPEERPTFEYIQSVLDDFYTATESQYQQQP
Assay endpoint: phosphorylation enrichment
Hey, just send me the number, nothing else.

Examples with answers:
Residue codes: FRIDHYLGKEM [G6PD_Y202_YF]
Numeric value: 0.49

Residue codes: TLQVMYGCDVG [HLA-B_Y123_S121V]
Numeric value: 0.593

Residue codes: EQKKFSNAMKK [SCN5A_Y1495_Y1495S_YF]
Numeric value: 0.364

Residue codes: SDYYAYSPVRE [H6PD_Y449]
Numeric value: 8.79

Residue codes: IDAICYFRMEN [NPHS2_Y194_YF]
Numeric value: 0.612

Residue codes: MCITQYKRESQ [PRNP_Y218_E219K]
Numeric value: 0.433

Residue codes: DDSSAYCSVDE [BCKDHA_Y345_R346C]
Numeric value: 0.58

Residue codes: SIYKDYYRYNF [PLA2G2D_Y85]
Numeric value: 3.09

Turning to the following sequence.
[Q] Supply phosphorylation enrichment value. Item: NFGTNYRVGSS [CPO_Y278_K273N_YF]
[A] 0.482

###

molecular target: Jak2 (UniProt O60674); assay: phosphorylation enrichment, bacterial display (enrichment ratio); higher = better substrate or ligand; peptides without Tyr show the background
Sequence (O60674 whole entry, looked up): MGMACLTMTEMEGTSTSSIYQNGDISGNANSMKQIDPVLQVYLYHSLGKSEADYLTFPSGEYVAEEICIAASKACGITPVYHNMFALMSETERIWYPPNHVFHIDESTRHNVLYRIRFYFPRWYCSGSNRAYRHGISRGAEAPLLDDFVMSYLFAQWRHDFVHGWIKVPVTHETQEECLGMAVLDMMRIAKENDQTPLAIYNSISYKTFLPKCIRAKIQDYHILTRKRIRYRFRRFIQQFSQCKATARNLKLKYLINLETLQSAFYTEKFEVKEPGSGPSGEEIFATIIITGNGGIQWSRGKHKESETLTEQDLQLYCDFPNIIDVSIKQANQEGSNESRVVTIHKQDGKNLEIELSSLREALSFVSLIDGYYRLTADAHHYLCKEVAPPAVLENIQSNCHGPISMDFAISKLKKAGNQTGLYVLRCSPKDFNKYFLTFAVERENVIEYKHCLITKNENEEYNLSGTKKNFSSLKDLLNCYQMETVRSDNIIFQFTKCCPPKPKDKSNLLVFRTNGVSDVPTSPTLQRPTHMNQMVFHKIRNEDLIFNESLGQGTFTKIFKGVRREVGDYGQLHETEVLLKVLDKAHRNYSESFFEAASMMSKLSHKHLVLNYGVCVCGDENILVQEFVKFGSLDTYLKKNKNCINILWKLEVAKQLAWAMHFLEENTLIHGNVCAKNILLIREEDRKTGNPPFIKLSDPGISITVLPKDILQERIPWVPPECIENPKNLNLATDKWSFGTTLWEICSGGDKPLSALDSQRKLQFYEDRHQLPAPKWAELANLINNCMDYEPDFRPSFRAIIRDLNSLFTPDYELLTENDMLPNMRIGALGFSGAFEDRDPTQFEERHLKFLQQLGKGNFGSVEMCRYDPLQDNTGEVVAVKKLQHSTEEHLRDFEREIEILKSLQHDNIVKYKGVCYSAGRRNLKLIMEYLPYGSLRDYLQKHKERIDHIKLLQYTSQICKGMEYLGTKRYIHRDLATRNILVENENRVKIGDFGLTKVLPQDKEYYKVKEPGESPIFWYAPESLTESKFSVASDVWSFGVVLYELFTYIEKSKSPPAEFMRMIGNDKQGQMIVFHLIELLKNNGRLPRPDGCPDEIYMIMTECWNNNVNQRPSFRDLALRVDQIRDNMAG
Give satisfied when the value for phosphorylation enrichment is at least 0.8. Give not satisfied when it is less.

Residue codes: REENGYNTFAS [FGF10_Y161_I156R_YF]
Subject of test: Jak2 (UniProt O60674)
Label class: satisfied
--
Residue codes: LGRTRYQHVTG [MIPEP_Y510]
Subject of test: Jak2 (UniProt O60674)
Label class: not satisfied
--
Residue codes: RFVSRYIFNRE [HLA-DQB1_Y62_T60S_YF]
Subject of test: Jak2 (UniProt O60674)
Label class: satisfied
--
Residue codes: ILTLKYPIERG [ACTA1_Y71_H75R]
Subject of test: Jak2 (UniProt O60674)
Label class: not satisfied
--
Residue codes: PLQKIYNYNVL [SLC4A1_Y553_T552I]
Subject of test: Jak2 (UniProt O60674)
Label class: satisfied
--
Residue codes: TARWEYMHSPS [CPOX_Y429]
Subject of test: Jak2 (UniProt O60674)
Label class: satisfied
--
Residue codes: HHTDEYEYDEL [TGM1_Y134]
Subject of test: Jak2 (UniProt O60674)
Label class: satisfied
--
Residue codes: VPVDGYISGLL [PAK6_Y81_M76V]
Subject of test: Jak2 (UniProt O60674)
Label class: satisfied

Note: attention shifts to another entry.
[Q] Evaluate PIPAAYNRFDQ [CDC73_Y290_YF] : phosphorylation enrichment at minimum 0.8?
[A] satisfied
